- Test system: SNB-19 CNS
- ASSAY PROCEDURE: NCI tumour cell line growth inhibition, 48 h
This section presents compounds with their documented TGI values.

Field: example entries. Status: answers known.
COMPOUND	TGI
O=C(CC(c1ccccc1)C(C(=O)c1ccncc1)C(CC(=O)c1ccncc1)c1ccccc1)c1ccncc1 (stereo not drawn)	> 100 µM
NC(=O)c1sc(-n2cnc3ccc(C(F)(F)F)cc32)cc1OCc1ccccc1Br	> 25 µM

Ask: Value lookup for TGI; key = `C=C(C)[C@@H]1CC[C@]2(C(=O)O)CC[C@]3(C)[C@H](CC[C@@H]4[C@@]5(C)C/C(=C/c6cccc(I)c6)C(=O)C(C)(C)[C@@H]5CC[C@]43C)[C@@H]12`
Reply: 17.5 µM

Ask: // query TGI value for entry `O=C(N[C@H]1CCC[C@H]1C(=O)Nc1ccc(C(F)(F)F)cc1)OCc1ccccc1`
Reply: > 100 µM

Ask: Record request: TGI value, item `C[C@]12CC[C@H](O)CC1=CC[C@@H]1[C@@H]2CC[C@]2(C)C(=O)/C(=C/c3ccc([N+](=O)[O-])cc3)C[C@@H]12`
Reply: 27.8 µM

Ask: TGI for `COc1ccccc1NC(=O)C1=C(C)NC(C)=C(C(=O)Nc2ccccc2OC)C1c1cccc2ccccc12` ?
Reply: > 100 µM

Ask: Find the recorded TGI belonging to c1ccc2c(c1)Sc1ccccc1N2C1CN2CCC1CC2 (stereo not drawn) and report it.
Reply: 46.7 µM

Ask: Fill in: TGI of COc1ccc(OC(C)C(=O)O)c2c1CCCC2=O (stereo not drawn) is ___
Reply: > 100 µM

Ask: Which TGI reading was recorded for the compound CC1C(C#N)(C#N)C(C#N)=C(N)C1(C)[N+](=O)[O-] (stereo not drawn) ?
Reply: > 100 µM

Ask: What value of measured TGI is listed for `O=C(Nc1ccc(Sc2ccc(N=Nc3c(O)c(S(=O)(=O)O)cc4cc(S(=O)(=O)O)ccc34)cc2)cc1)c1ccc(N=Nc2c(O)c(S(=O)(=O)O)cc3cc(S(=O)(=O)O)ccc23)cc1` ?
Reply: > 100 µM

Ask: What does the data say about its TGI? Entry: `COc1cc2c(c(OC)c1OC)-c1ccc(SC)c(=O)cc1[C@@H](NCc1cccc([N+](=O)[O-])c1)CC2`
Reply: > 100 µM

Ask: Quick one: TGI of `C[C@@]12C[C@@H](c3ccccc3O1)N1Cc3ccccc3CSC1=N2` ?
Reply: > 100 µM

Ask: Can you look up the measured TGI of CN(C(=O)C12C3C4C1C1C2C3C41C(O)C(C)(C)C)C(C)(C)C (stereo not drawn) for me?
Reply: > 100 µM
